src = the supplement of paper PMC5412046

system: SB.msgc-1; assay: area under the dose-response curve of % viability (trapezoidal, 11 doses) (% viability x log10 concentration); higher = less cytotoxic; settings: SB.msgc-1 (sporadic gastric cancer)
test readout: area under the dose-response curve
Just the number, please.

Recorded area under the dose-response curve, per entry:
compound	area under the dose-response curve
CO[C@H]1C[C@@H]2CC[C@@H](C)[C@@](O)(O2)C(=O)C(=O)N2CCCC[C@H]2C(=O)O[C@H]([C@H](C)C[C@@H]2CC[C@@H](OP(C)(C)=O)[C@H](OC)C2)CC(=O)[C@H](C)/C=C(\C)[C@@H](O)[C@@H](OC)C(=O)[C@H](C)C[C@H](C)/C=C/C=C/C=C/1C [Ridaforolimus] (top concentration 46.0829 µM)	475
CC(C)OC(=O)OCOP(=O)(CO[C@H](C)Cn1cnc2c(N)ncnc21)OCOC(=O)OC(C)C.O=C(O)C=CC(=O)O [Tenofovir Disoproxil Fumarate] (top concentration 46.0829 µM)	500

Just so you know, measured area under the dose-response curve for CC(=O)C1=C(O)C2(C)C(=CC1=O)Oc1c(C(C)=O)c(O)c(C)c(O)c12 (single isomer, unassigned; (+)) [(+)-Usniacin] (top concentration 46.0829 µM) came out at 557

Just so you know, measured area under the dose-response curve for Clc1ccc2c(N3CCN(CCCN4CCN(c5ccnc6cc(Cl)ccc56)CC4)CC3)ccnc2c1 [Piperaquine] (top concentration 23.0415 µM) came out at 534
